These measurements were taken from paper PMC11838108.

experiment: Stability of peptides after in vitro simulated digestion (RP-HPLC); format: in vitro ADME; set-up: dose or concentration left out as unconfirmed; conditions: simulated salivary fluid (SSF) with salivary amylase; after oral phase, RP-HPLC peak area; read-out: Oral digestion (stability of peptide)
Where no end group is shown, it is not given here.
MEASURED PROPERTY: remaining at 2 min (%)

>>> value_measured("GPFPLL [GPFPLL]")
99.6

###

biological target: DPP-IV (Homo sapiens, UniProt P27487); test: DPP-IV inhibition by the peptides (Gly-Pro-pNA substrate); type: biochemical; conditions: Gly-Pro-pNA 0.2 mM, DPP-IV 0.0025 U/mL, 60 min; read-out: DPP-IV inhibitory activity IC50
Sequence (P27487 whole entry): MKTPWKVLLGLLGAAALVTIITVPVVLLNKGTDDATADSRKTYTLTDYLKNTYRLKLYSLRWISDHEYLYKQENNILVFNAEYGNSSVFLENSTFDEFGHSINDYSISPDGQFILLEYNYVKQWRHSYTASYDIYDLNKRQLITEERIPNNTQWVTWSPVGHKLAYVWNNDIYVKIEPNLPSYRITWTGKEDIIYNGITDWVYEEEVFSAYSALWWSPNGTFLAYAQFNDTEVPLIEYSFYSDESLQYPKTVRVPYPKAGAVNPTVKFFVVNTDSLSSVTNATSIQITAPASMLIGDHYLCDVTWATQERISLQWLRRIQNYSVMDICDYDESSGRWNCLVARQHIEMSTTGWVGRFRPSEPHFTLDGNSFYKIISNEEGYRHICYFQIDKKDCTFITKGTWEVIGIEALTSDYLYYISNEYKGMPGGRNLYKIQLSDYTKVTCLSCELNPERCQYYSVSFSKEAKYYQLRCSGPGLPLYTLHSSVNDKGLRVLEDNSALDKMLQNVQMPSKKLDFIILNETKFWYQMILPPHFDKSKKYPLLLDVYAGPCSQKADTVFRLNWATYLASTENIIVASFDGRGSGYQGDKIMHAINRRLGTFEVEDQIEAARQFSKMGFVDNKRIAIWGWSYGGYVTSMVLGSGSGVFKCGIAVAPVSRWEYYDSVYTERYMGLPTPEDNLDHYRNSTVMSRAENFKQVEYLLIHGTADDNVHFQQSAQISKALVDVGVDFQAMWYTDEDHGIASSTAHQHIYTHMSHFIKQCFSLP
Where no end group is shown, it is not given here.
substances and their reported IC50
MEASURED PROPERTY: IC50 (µM)

>>> value_measured("GPFPLL [GPFPLL]")
131
>>> value_measured("GPFPILN [GPFPILN]")
198
